Cited source: patent US9969732B2

- Test system: ER-alpha (WT) (Homo sapiens, UniProt P03372)
- Construct: endogenous in cells; host or cells: MCF7 breast cancer cells
- Test name: Breast Cancer Cell ERa High Content Fluorescence Imaging Degradation Assay (MCF7 HCS)
- Type: cell-based
- Condition notes: MCF7 breast cancer cells, 4 hours incubation; plateau of the maximal effect; DMSO and Fulvestrant define 0% and 100% changes in ESR1
Item-by-item account of ERalpha (WT) MCF7 HCS (S inf)
Answer as a quantity: numeral, then unit.

# Molecule, Test system, ERalpha (WT) MCF7 HCS (S inf)
records = [
    ("C[C@H]1Cc2cc(CO)ccc2[C@H](c2ccc(OCCN3CC(CF)C3)cc2)N1CC(F)(F)CO (single isomer, unassigned)", "ER-alpha (WT) (Homo sapiens, UniProt P03372)", "−63%"),
    ("C[C@]1(c2ccc(OCCN3CC(CF)C3)cc2)c2ccc(O)cc2CCN1CC(F)(F)F", "ER-alpha (WT) (Homo sapiens, UniProt P03372)", "−97%"),
    ("Oc1ccc2c(c1)CC[C@H](c1ccccc1)[C@@H]2c1ccc(OCCN2CCCC2)cc1 [lasofoxifene, reference compound]", "ER-alpha (WT) (Homo sapiens, UniProt P03372)", "−73.5%"),
]

Okay, now this molecule:
Could you tell me which ERalpha (WT) MCF7 HCS (S inf) is on file for C[C@@H]1Cc2cc(CO)ccc2[C@@H](c2ccc(NC3CN(CCCF)C3)cc2)N1CC(F)(F)F (single isomer, unassigned) ?
−100%

----------
- Test system: ER-alpha (WT) (Homo sapiens)
- Construct: endogenous in cells
- Test name: Breast Cancer Cell ERa High Content Fluorescence Imaging Degradation Assay (MCF7 HCS)
- Condition notes: MCF7 breast cancer cells, 4 hours incubation; inflexion point of curve
- Protocol: MCF7 breast cancer cells were seeded on day 1 at a density of 10,000 cells per well in 384 well poly-lysine coated tissue culture plate (Greiner #T-3101-4), in 50 μL/well RPMI (phenol red free), 10% FBS (Charcoal stripped), containing L-glutamine. […] Quantitative fluorescence imaging of ESR1 was carried out using a Cellomics Arrayscan V® (Thermo). […]
Item-by-item account of pEC50
// scale note: pEC50 = -log10(conc_M); give the bare number

These solved cases illustrate the format of a correct answer.
# Compound, Assay result
measured = [
    ("C[C@H]1Cc2cccc(O)c2[C@H](c2ccc(OCCN3CC(CF)C3)cc2)N1CC(F)(F)CO (single isomer, unassigned)", 6.29),
    ("C[C@@H]1Cc2cc(C(=O)O)ccc2[C@@H](c2ccc(OCCN3CC(CF)C3)cc2)N1CC(F)(F)F (single isomer, unassigned)", 8.89),
    ("Oc1ccc2c(c1)CCN(c1ccccc1)C2c1ccc(OC2CN(CCCF)C2)cc1 (stereo not shown)", 9.06),
]

Could you tell me which pEC50 is on file for CC(C)(F)CN1CCc2cc(O)ccc2[C@@]1(C)c1ccc(OCCN2CC(CF)C2)cc1 (single isomer, unassigned) ?
10.46

----------
- Test system: ER-alpha (WT) (Homo sapiens)
- Construct: endogenous in cells
- Sequence (P03372 1-595): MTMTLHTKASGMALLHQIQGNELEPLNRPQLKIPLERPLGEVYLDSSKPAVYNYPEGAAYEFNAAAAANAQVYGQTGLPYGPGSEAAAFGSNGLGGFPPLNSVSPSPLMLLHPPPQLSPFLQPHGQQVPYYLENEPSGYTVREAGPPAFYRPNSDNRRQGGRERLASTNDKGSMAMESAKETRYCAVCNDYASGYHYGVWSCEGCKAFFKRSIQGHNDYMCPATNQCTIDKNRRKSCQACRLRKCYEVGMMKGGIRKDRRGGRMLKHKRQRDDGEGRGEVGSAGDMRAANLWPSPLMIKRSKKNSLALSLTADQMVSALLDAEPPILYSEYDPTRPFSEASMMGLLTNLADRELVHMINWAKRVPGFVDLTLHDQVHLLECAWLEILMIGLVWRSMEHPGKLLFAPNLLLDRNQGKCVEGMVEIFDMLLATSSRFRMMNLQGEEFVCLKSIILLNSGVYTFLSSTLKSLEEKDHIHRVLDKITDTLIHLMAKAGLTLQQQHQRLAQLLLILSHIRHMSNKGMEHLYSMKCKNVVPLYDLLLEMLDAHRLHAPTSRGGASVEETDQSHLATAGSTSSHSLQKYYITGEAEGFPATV
- Test name: Breast Cancer Cell ERa High Content Fluorescence Imaging Degradation Assay (MCF7 HCS)
- Condition notes: MCF7 breast cancer cells, 4 hours incubation; inflexion point of curve
Measured endpoint: EC50

These solved cases illustrate the format of a correct answer.
# Molecule, EC50
records = [
    ("FCC1CN(CCOc2ccc([C@H]3c4ccc(-c5cn[nH]c5)cc4CCN3CC(F)(F)F)cc2)C1 [Example 145]", "≥ 100 nM"),
    ("C[C@H]1Cc2cc(O)ccc2[C@H](c2ccc(OCCN3CC(CF)C3)cc2)N1CC(F)(F)CO [Example 165]", "0.96 nM"),
]

Could you tell me which EC50 is on file for NC(=O)c1ccc2c(c1)CCN(CC(F)(F)F)[C@H]2c1ccc(OCCN2CC(CF)C2)cc1 [Example 141] ?
≥ 100 nM

Same lookup for FCC1CN(CCOc2ccc([C@H]3c4ccc(-c5cc[nH]n5)cc4CCN3CC(F)(F)F)cc2)C1 [Example 151] , please.
≥ 100 nM

----------
- Test system: ER-alpha (WT) (Homo sapiens)
- Construct: endogenous in cells
- Sequence (P03372 1-595): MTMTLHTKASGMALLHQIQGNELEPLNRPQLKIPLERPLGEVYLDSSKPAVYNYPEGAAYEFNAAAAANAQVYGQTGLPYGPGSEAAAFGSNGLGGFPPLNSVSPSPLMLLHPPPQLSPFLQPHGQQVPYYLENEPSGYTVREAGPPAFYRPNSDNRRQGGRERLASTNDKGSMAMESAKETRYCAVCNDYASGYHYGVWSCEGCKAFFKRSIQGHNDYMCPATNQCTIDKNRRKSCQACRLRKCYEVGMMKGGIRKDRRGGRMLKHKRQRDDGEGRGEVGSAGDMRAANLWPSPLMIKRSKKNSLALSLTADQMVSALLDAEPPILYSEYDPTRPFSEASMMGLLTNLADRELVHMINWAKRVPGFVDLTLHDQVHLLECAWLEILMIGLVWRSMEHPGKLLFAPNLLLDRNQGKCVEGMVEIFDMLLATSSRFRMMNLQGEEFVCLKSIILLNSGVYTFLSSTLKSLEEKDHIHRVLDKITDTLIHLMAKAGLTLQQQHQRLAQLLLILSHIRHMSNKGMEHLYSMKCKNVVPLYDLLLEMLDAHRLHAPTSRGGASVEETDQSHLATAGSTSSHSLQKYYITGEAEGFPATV
- Test name: Breast Cancer Cell ERa High Content Fluorescence Imaging Degradation Assay (MCF7 HCS)
- Condition notes: MCF7 breast cancer cells, 4 hours incubation; inflexion point of curve
Measured endpoint: EC50

These solved cases illustrate the format of a correct answer.
# Compound, EC50
data = [
    ("C[C@H](O)c1ccc2c(c1)C[C@@H](C)N(CC(F)(F)CO)[C@@H]2c1ccc(OCCN2CC(CF)C2)cc1 [Example 178]", "> 100 nM"),
    ("C[C@H](CN1CCc2cc(O)ccc2[C@]1(C)c1ccc(OCCN2CC(CF)C2)cc1)C(=O)O [Example 138]", "≥ 100 nM"),
]

Okay, now this compound:
Could you tell me which EC50 is on file for C[C@H]1Cc2cc(O)ccc2[C@H](c2ccc(OCCN3CC(CF)C3)cc2)N1S(C)(=O)=O [Example 117] ?
≥ 100 nM
